# Tested on: 885724-159-R-J1-PDC complex spheroid viability;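 note: spheroids exposed to agents for seven days before readout; percent of vehicle control viability where 100% = DMSO wells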
# assay_notes: Anticancer human tumor 885724-159-R-J1-PDC patient-derived pancreatic adenocarcinoma cell line growth inhibition [GQUAD]; active = viability on the fitted dose curve at most 10% of control; inactive = the rest
# particulars: second compound 3.16 µM; first compound 3.16 µM
Outcomes you can answer with include only these: true (1) for active, false (0) for inactive

Example entries begin here.
1) COc1cccc2c1C(=O)c1c(O)c3c(c(O)c1C2=O)CC(O)(C(=O)CO)CC3OC1CC(N)C(O)C(C)O1 (centres undefined) + Cc1[nH]c2ccc(F)cc2c1-c1nc2c3cccnc3c3ncccc3c2[nH]1
false (0)
2) O=C(c1cc(Cc2n[nH]c(=O)c3ccccc23)ccc1F)N1CCN(C(=O)C2CC2)CC1 + Cc1[nH]c2ccc(F)cc2c1-c1nc2c3cccnc3c3ncccc3c2[nH]1
false (0)
3) C=CCn1c(=O)c2cnc(Nc3ccc(N4CCN(C)CC4)cc3)nc2n1-c1cccc(C(C)(C)O)n1 + Cc1[nH]c2ccc(F)cc2c1-c1nc2c3cccnc3c3ncccc3c2[nH]1
true (1)
4) CC(C)n1c(=O)n(C)c2cnc3cc(F)c(-c4ccc(OCCCN5CCCCC5)nc4)cc3c21 + Cc1cnc(CNC(=O)c2c(=O)c3ccc(N4CCCN(C)CC4)nc3n3c2sc2ccccc23)cn1
false (0)
5) C=CCn1c(=O)c2cnc(Nc3ccc(N4CCN(C)CC4)cc3)nc2n1-c1cccc(C(C)(C)O)n1 + CN(C)c1ccc(Nc2c3ccc(NC(=O)CCN4CCCC4)cc3nc3cc(NC(=O)CCN4CCCC4)ccc23)cc1
false (0)
6) O=C(c1cc(Cc2n[nH]c(=O)c3ccccc23)ccc1F)N1CCN(C(=O)C2CC2)CC1 + Cc1cnc(CNC(=O)c2c(=O)c3ccc(N4CCCN(C)CC4)nc3n3c2sc2ccccc23)cn1
false (0)

IN: # lookup: test call for C#Cc1c(F)ccc2cc(O)cc(-c3ncc4c(N5CC6CCC(C5)N6)nc(OCC56CCCN5CC(F)C6)nc4c3F)c12 (centres undefined) + Cc1cnc(CNC(=O)c2c(=O)c3ccc(N4CCCN(C)CC4)nc3n3c2sc2ccccc23)cn1
OUT: false (0)

IN: # lookup: test call for CC1COCCN1c1cc(C2(S(C)(=N)=O)CC2)nc(-c2ccnc3[nH]ccc23)n1 (centres undefined) + Cc1[nH]c2ccc(F)cc2c1-c1nc2c3cccnc3c3ncccc3c2[nH]1
OUT: false (0)

IN: # lookup: test call for C=CCn1c(=O)c2cnc(Nc3ccc(N4CCN(C)CC4)cc3)nc2n1-c1cccc(C(C)(C)O)n1 + Cc1cnc(CNC(=O)c2c(=O)c3ccc(N4CCCN(C)CC4)nc3n3c2sc2ccccc23)cn1
OUT: false (0)
